experiment.notes: Solubility test
Format: physicochemical
assay.setup: JP 1st fluid, 25 °C, pH 1.2, simulated gastric fluid, kinetic from dmso stock; read-out: JP1
property.label: solubility kinetic at 16 h (µM)
Reply numerically in µM, unit not repeated.

See these solved cases before continuing.
{"columns": ["compound.string", "unit.text", "solubility kinetic at 16 h"],
 "data": [
  ["C[C@]1(c2cc(NC(=O)c3ccc(C#N)cn3)ccc2F)N=C(N)OCC12CC(F)(F)C2", "µM", 29.9],
  ["C[C@@H]1[C@@H](C(F)(F)F)OC(N)=N[C@]1(C)c1cc(NC(=O)c2ccc(C#N)cn2)ccc1F", "µM", 39.7],
  ["CO[C@H]1[C@@H](CF)OC(N)=N[C@]1(C)c1cc(NC(=O)c2ccc(F)cn2)ccc1F", "µM", 46.7],
  ["CO[C@H]1[C@@H](CF)OC(N)=N[C@]1(C)c1cc(NC(=O)c2ccc(C#N)cn2)ccc1Cl", "µM", 36],
  ["C[C@]1(c2cc(NC(=O)c3cnc(OCF)cn3)ccc2F)N=C(N)O[C@H](CF)[C@@H]1OCC(F)(F)F", "µM", 36.1],
  ["CO[C@H]1[C@@H](CF)OC(N)=N[C@]1(C)c1cc(NC(=O)c2cnc(OCF)cn2)ccc1F", "µM", 38.8]
]}

// next entry
Q) Could you tell me which solubility kinetic at 16 h is on file for `C[C@H]1[C@@H](C(F)(F)F)OC(N)=N[C@]1(C)c1cc(NC(=O)c2cnc(OCF)cn2)ccc1F` ?
A) 39.2
